Tested on: BT-549 breast
Assay: NCI tumour cell line growth inhibition, 48 h
# reported GI50; entries follow

Check out these entries, answers already filled in.
O=C(/C(=C/c1cccc([N+](=O)[O-])c1)c1ccccc1)c1ccccc1 | 3.38 µM
CCc1oc2ccccc2c1C(=O)c1cc(I)c(O)c(I)c1 | 2.79 µM
COc1ccc2nc3cc(Cl)ccc3c(NCCN)c2c1 | 1.81 µM
Cc1ccc2[nH]c(C(=O)NN3C(=O)C(C)SC34CCCC(C)C4)c(-c3ccccc3)c2c1 (stereo unspecified) | 76.7 µM
Cc1ccc(C(=O)Nc2ccc(CN3CCN(C)CC3)c(C(F)(F)F)c2)cc1C#Cc1cnc(N)c2ccccc12 | 1.93 µM

API: the following record is the query input.
If you can, please state the reported GI50 value of CCCCCN(CCCCC)CC(O)c1ccc(Cl)c2ccccc12 (stereo unspecified) . 16.3 µM
